Record set of log10 of IC50 for target or system UniProtKB P24941.
PROPERTY NAME: log10 of IC50 (log10 of the value in nM)

# SMILES STR, READING
rows = [
    ("NS(=O)(=O)c1ccc(NN=C2C(=O)Nc3ccc(S(=O)(=O)O)cc32)cc1", 1.18),
    ("NS(=O)(=O)c1ccc(NN=C2C(=O)Nc3ccc(C(=O)NCc4cccnc4)cc32)cc1", 0.32),
    ("C/C(Nc1ccc(S(N)(=O)=O)cc1)=C1/C(=O)Nc2ccc(-c3cnco3)cc21", 0.30),
    ("COc1cccc(OC)c1CNC(=O)c1ccc2c(c1)C(=NNc1ccc(S(N)(=O)=O)cc1)C(=O)N2", 0.23),
    ("NS(=O)(=O)c1ccc(N/C=C2\\C(=O)Nc3ccc4ncccc4c32)cc1", 0.18),
    ("Cc1ccc2c(c1Cl)C(=NNc1ccc(S(N)(=O)=O)cc1)C(=O)N2", 1.11),
    ("COc1ccc2c(c1Cl)C(=NNc1ccc(S(N)(=O)=O)cc1)C(=O)N2", 1.73),
    ("N=C(N)NS(=O)(=O)c1ccc(N/C=C2\\C(=O)Nc3ccc4ncsc4c32)cc1", 0.52),
    ("COCCOCCOCCOCCNS(=O)(=O)c1ccc(N/C=C2\\C(=O)Nc3ccc4ncsc4c32)cc1", 0.65),
]

This collection of values is drawn from ChEMBL document CHEMBL1134300.
